# assayTarget: HLA-A*03:01
# procedureSummary: IEDB peptide-MHC binding, purified MHC/competitive/radioactivity; filed as Kd, often an IC50 or EC50 that approximates it; bounds were set here for any values at or beyond the usual limits of such assays
# measurementContext: source organism: SARS coronavirus Tor2
// values below are reported log10(Kd)
Parameter value (number): base-10 log of Kd in µM.

These recorded examples may help you get a feel for the data.
{"columns": ["sequence", "log10(Kd)"],
 "data": [
  ["VAFELWAKR", 0.97],
  ["SICSTMTNR", -0.06],
  ["VLDMCAALK", -1.75]
]}

## Input Tell me log10(Kd) reported for "GALDTTSYR"
## Output 0.82

## Input Tell me log10(Kd) reported for "TQSRDLEDFK"
## Output 1.29

----------
# assayTarget: HLA-A*31:01
# procedureSummary: IEDB peptide-MHC binding, purified MHC/competitive/radioactivity; filed as Kd, often an IC50 or EC50 that approximates it; bounds were set here for any values at or beyond the usual limits of such assays
# measurementContext: source organism: Vaccinia virus Copenhagen
// values below are reported pKd
Field pKd (float): negative decimal logarithm of the concentration in molar.

{"columns": ["sequence", "assayTarget", "pKd"],
 "data": [
  ["CQLMYALEPR", "HLA-A*31:01", 5.98],
  ["QLMYALEPR", "HLA-A*31:01", 4.89]
]}

## Input Name the recorded pKd of "TLFIDRGSIK" , assay system HLA-A*31:01.
## Output 5.10

----------
# assayTarget: HLA-A*30:02
# procedureSummary: IEDB peptide-MHC binding, purified MHC/competitive/radioactivity; filed as Kd, often an IC50 or EC50 that approximates it; bounds were set here for any values at or beyond the usual limits of such assays
# measurementContext: source organism: Lassa virus Josiah
measure: Kd

{"columns": ["sequence", "Kd"],
 "data": [
  ["CWLVSNGSY", "6.3 nM"]
]}

Now, please, on to the next sequence.
## Input Tell me Kd reported for "DIMGIPYCNY"
## Output 444 nM

----------
# assayTarget: HLA-B*46:01
# procedureSummary: IEDB peptide-MHC binding, purified MHC/competitive/fluorescence; filed as Kd, often an IC50 or EC50 that approximates it; bounds were set here for any values at or beyond the usual limits of such assays
# measurementContext: source organism: Orthohantavirus sinnombreense
measure: Kd

## Input Tell me Kd reported for "YRTLGVFRY"
## Output ≥ 20 µM

----------
# assayTarget: HLA-A*29:02
# procedureSummary: IEDB peptide-MHC binding, purified MHC/competitive/fluorescence; filed as Kd, often an IC50 or EC50 that approximates it; bounds were set here for any values at or beyond the usual limits of such assays
# measurementContext: source organism: Rotavirus G3
measure: Kd (µM)
Field: numeric (µM). Do not append units.

## Input Tell me Kd reported for "MVKMGGLGY"
## Output 0.0286

----------
# assayTarget: HLA-A*26:01
# procedureSummary: IEDB peptide-MHC binding, purified MHC/direct/fluorescence; filed as Kd, often an IC50 or EC50 that approximates it; bounds were set here for any values at or beyond the usual limits of such assays
# measurementContext: source organism: Salmonella enterica subsp. enterica serovar Typhimurium str. LT2
pKd: −log10 of the molar value.
measure: pKd

## Input Name the recorded pKd of "YSDIFNNVL" , assay system HLA-A*26:01.
## Output ≤ 4.70

----------
# assayTarget: HLA-A*24:03
# procedureSummary: IEDB peptide-MHC binding, purified MHC/direct/fluorescence; filed as Kd, often an IC50 or EC50 that approximates it; bounds were set here for any values at or beyond the usual limits of such assays
# measurementContext: source organism: Araucaria virus
pKd: −log10 of the molar value.
measure: pKd

## Input Tell me pKd reported for "AQKLATKPV"
## Output ≤ 4.70

----------
# assayTarget: HLA-B*08:01
# procedureSummary: IEDB peptide-MHC binding, purified MHC/competitive/fluorescence; filed as Kd, often an IC50 or EC50 that approximates it; bounds were set here for any values at or beyond the usual limits of such assays
# measurementContext: source organism: Entamoeba histolytica HM-1:IMSS
pKd: −log10 of the molar value.
measure: pKd

## Input Tell me pKd reported for "IESNPLFPV"
## Output ≤ 5.30

----------
# assayTarget: HLA-B*07:02
# procedureSummary: IEDB peptide-MHC binding, purified MHC/direct/fluorescence; filed as Kd, often an IC50 or EC50 that approximates it; bounds were set here for any values at or beyond the usual limits of such assays
# measurementContext: source organism: Klebsiella pneumoniae
pKd: −log10 of the molar value.
measure: pKd

## Input Tell me pKd reported for "LLQEKYGLI"
## Output ≤ 4.70

----------
# assayTarget: HLA-A*02:01
# procedureSummary: IEDB peptide-MHC binding, purified MHC/direct/fluorescence; filed as Kd, often an IC50 or EC50 that approximates it; bounds were set here for any values at or beyond the usual limits of such assays
# measurementContext: source organism: Marburg virus - Musoke, Kenya, 1980
measure: pKd
Field pKd (float): negative decimal logarithm of the concentration in molar.

## Input Tell me pKd reported for "FLYDRIAST"
## Output 8.30

----------
// values below are reported pKd
# assayTarget: HLA-B*58:01
# procedureSummary: IEDB peptide-MHC binding, purified MHC/direct/fluorescence; filed as Kd, often an IC50 or EC50 that approximates it; bounds were set here for any values at or beyond the usual limits of such assays
# measurementContext: source organism: Camelpox virus M-96
Field pKd (float): negative decimal logarithm of the concentration in molar.

{"columns": ["sequence", "assayTarget", "pKd"],
 "data": [
  ["RVYNNTARY", "HLA-B*58:01", 7.80]
]}

Now, please, on to the next sequence.
## Input Tell me pKd reported for "ATNDGLIKK"
## Output 5.05

----------
# assayTarget: HLA-A*02:11
# procedureSummary: IEDB peptide-MHC binding, purified MHC/direct/fluorescence; filed as Kd, often an IC50 or EC50 that approximates it; bounds were set here for any values at or beyond the usual limits of such assays
# measurementContext: source organism: Araucaria virus
pKd: −log10 of the molar value.
measure: pKd

## Input Name the recorded pKd of "AQKLATKPV" , assay system HLA-A*02:11.
## Output ≤ 4.70

----------
# assayTarget: HLA-B*51:01
# procedureSummary: IEDB peptide-MHC binding, purified MHC/competitive/fluorescence; filed as Kd, often an IC50 or EC50 that approximates it; bounds were set here for any values at or beyond the usual limits of such assays
# measurementContext: source organism: Orthohantavirus sinnombreense
pKd: −log10 of the molar value.
measure: pKd

## Input Tell me pKd reported for "YRTLGVFRY"
## Output ≤ 4.70

----------
# assayTarget: HLA-A*26:01
# procedureSummary: IEDB peptide-MHC binding, purified MHC/direct/fluorescence; filed as Kd, often an IC50 or EC50 that approximates it; bounds were set here for any values at or beyond the usual limits of such assays
# measurementContext: source organism: Francisella tularensis subsp. tularensis FSC033
measure: pKd
Field pKd (float): negative decimal logarithm of the concentration in molar.

## Input Tell me pKd reported for "EPILEYVVY"
## Output 6.08

----------
# assayTarget: HLA-A*26:02
# procedureSummary: IEDB peptide-MHC binding, purified MHC/direct/fluorescence; filed as Kd, often an IC50 or EC50 that approximates it; bounds were set here for any values at or beyond the usual limits of such assays
# measurementContext: source organism: Vibrio vulnificus CMCP6
measure: Kd

## Input Tell me Kd reported for "KGHLPLLDK"
## Output ≥ 20 µM

## Input Tell me Kd reported for "PHPVVVRTL"
## Output ≥ 20 µM

----------
# assayTarget: HLA-A*69:01
# procedureSummary: IEDB peptide-MHC binding, purified MHC/competitive/fluorescence; filed as Kd, often an IC50 or EC50 that approximates it; bounds were set here for any values at or beyond the usual limits of such assays
# measurementContext: source organism: Influenza A virus (A/Victoria/1968(H3N2))
measure: Kd

## Input Tell me Kd reported for "NMDKAVKLY"
## Output ≥ 20 µM

----------
# assayTarget: HLA-B*15:42
# procedureSummary: IEDB peptide-MHC binding, purified MHC/competitive/fluorescence; filed as Kd, often an IC50 or EC50 that approximates it; bounds were set here for any values at or beyond the usual limits of such assays
# measurementContext: source organism: Giardia lamblia ATCC 50803
measure: Kd

## Input Tell me Kd reported for "RLYPFGSYY"
## Output ≥ 5 µM

----------
# assayTarget: HLA-A*01:01
# procedureSummary: IEDB peptide-MHC binding, purified MHC/competitive/fluorescence; filed as Kd, often an IC50 or EC50 that approximates it; bounds were set here for any values at or beyond the usual limits of such assays
# measurementContext: source organism: Rotavirus G3
pKd: −log10 of the molar value.
measure: pKd

## Input Tell me pKd reported for "MVKMGGLGY"
## Output ≤ 4.70

Recorded values, source the Immune Epitope Database (IEDB).
